B1: GMCL1 (parent)
chain: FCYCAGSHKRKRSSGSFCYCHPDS

variants of: B1; assay: protein stability index of a GFP-peptide fusion (GPS, HEK-293T) (PSI 1-6); higher = more stable; conditions: c terminus: a fixed tail appended;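 also: lentivirally expressed fusions sorted by FACS into six bins by GFP to DsRed ratio, PSI derived from sequencing read proportions per bin multiplied by bin number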
Label Fulfilled for high-side protein stability index (at or above 2) and Not fulfilled for low-side protein stability index (below it).

Past entries and their recorded results:
H8D    Not fulfilled
C20V    Not fulfilled
Y3Q    Fulfilled
F1S    Fulfilled
R12I    Not fulfilled

Kindly review the next variant as well.
Query: Would you say S14A shows protein stability index at minimum 2?
Reply: Fulfilled
